Experiment: Viability Counterscreen for Confirmatory qHTS for Inhibitors of ATXN expression; note: nearly all actives have a fitted effect of over 50% in size
Settings: HEK-293 ATXN2-luc cells viability, CellTiter-Fluor, 24 h
From the text: PI: Daniel Scoles Ph.D. University of Utah School of Medicine, Salt Lake City, Utah MLPCN Grant: NS073009 Spinocerebellar ataxia type 2 (SCA2) is a multisystem neurodegenerative disease caused by a dominantly acting mutation leading to expansion of a polyQ domain in the ataxin-2 protein (ATXN2). SCA2 patients develop progressive ataxia and later lose function in other neuronal systems. […] Here we describe a 5-7 dose quantitative high thoroughput screen (qHTS) for compounds lowering ATXN2 expression. […]
The whole screen tested about 2,100 compounds, of which about 260 (12%) were called active. Inconclusive results (about 58%) are left out. Calls come from the whole dose curve; as a rule, active = well fitted cell-killing curve with a large enough effect; inconclusive = small, poorly fitted or top-dose-only effect, or effect the other way; inactive = flat fitted curve, though single readings scatter. Some of the results follow.
Outcome codes: active, inactive

molecule: COc1ccc2c(c1)[nH]c1c(=O)n(/N=C/C3C(C)C=C(C)CC3C)c(=O)[nH]c12 (configuration not stated)
class_assignment: active
--
molecule: COc1ccc(N2CCN(c3cc(C)nc4ccc(OC)cc34)CC2)cc1
class_assignment: inactive
--
molecule: COc1ccccc1Cc1c(-c2ccco2)nc2c(C)cc(Br)cn12
class_assignment: active
--
molecule: Clc1c(Cl)c(Cl)c2n[nH]nc2c1Cl
class_assignment: inactive
--
molecule: O=c1c2c3c(sc2ncn1/N=C/c1ccc([N+](=O)[O-])o1)CCCC3
class_assignment: active
--
molecule: Cc1[nH]n(-c2ccccc2)c(=O)c1C=Nc1cccc2cccnc12
class_assignment: inactive
--
molecule: N#Cc1ccc(-c2nc3cc(Cl)ccc3c(=O)n2O)cc1
class_assignment: inactive
--
molecule: O=C(NCC1CCCO1)c1cccc(Oc2ccc([N+](=O)[O-])cc2Cl)c1 (configuration not stated)
class_assignment: inactive
--
molecule: CCOC(=O)C1CCN(c2ncnc3c2cnn3-c2ccc(Cl)cc2)CC1
class_assignment: inactive
--
molecule: CCN1CC2=C(OC(N)=C(C#N)C2c2cccs2)/C(=C\c2cccs2)C1 (configuration not stated)
class_assignment: inactive
--
molecule: COc1cc(C(=O)OC(C)C(=O)N2CCc3ccccc3C2)ccc1OCC(=O)N1CCOCC1 (configuration not stated)
class_assignment: inactive
--
molecule: Cc1nc(-c2ccc(Cl)cc2)sc1C(=O)NN
class_assignment: inactive
--
molecule: CCOC(=O)c1ccc(NC(=O)c2nc[nH]c2C(=O)N[C@H](C)c2ccccc2)cc1
class_assignment: inactive
--
molecule: O=C(Cn1cnc([N+](=O)[O-])c1)Nc1cc(Oc2ccc(Cl)cc2Cl)cc([N+](=O)[O-])c1
class_assignment: active
--
molecule: COc1cc([N+](=O)[O-])cc(/C=N/NC(=O)c2ccc(NC(=O)c3ccc(C)cc3)cc2)c1O
class_assignment: active
--
molecule: Cc1cccc(NC(=O)CCC(=O)N/N=C/c2ccc(O)cc2O)c1
class_assignment: inactive
--
molecule: Cc1ccc(C(=O)N/N=C/c2nc3ccccc3n2C)cc1
class_assignment: inactive
--
molecule: COc1ccc2nc(C)c3c(c2c1)OC(C(C)(Cl)Br)C3 (configuration not stated)
class_assignment: inactive
--
molecule: O=C1C=CCC(/C=C/c2ccccc2)O1 (configuration not stated)
class_assignment: active
--
molecule: COc1ccc(-c2cc(C3CCN(c4ccc(C(C)=O)cc4[N+](=O)[O-])CC3)[nH]n2)cc1
class_assignment: active
--
molecule: COc1ccc2nc(C)cc(NCc3cccc(C(F)(F)F)c3)c2c1
class_assignment: active
--
molecule: CC(=O)c1ccc(N2CCc3ccccc3C2)c([N+](=O)[O-])c1
class_assignment: inactive
